Test system: Wolbachia pipientis
Test: Anti-Wolbachia Cell-Based Screen
Type: functional
Design: scale not given: in the data most compounds retested in dose-response had high values
Settings: 5 µM
The whole screen tested about 48,000 compounds, of which about 13,000 (27%) showed an effect of 50% or more. The list shows a part of the results.

molecule	outputUnit	Percent Effect
Cc1cc(CSCc2csc(CS(C)(=O)=O)n2)no1	%	97.95
CC[C@@]1(O)CCN(c2ncc(Cl)cc2F)C[C@H]1O	%	-11.81
CS(=O)(=O)Cc1nc(CNc2ccc(F)c(F)c2)cs1	%	12.98
CC[C@@]1(O)CCN(Cc2cc(C3CCCCC3)no2)C[C@H]1O	%	5.851
Cc1noc(C)c1CSCc1csc(CS(C)(=O)=O)n1	%	94.77
CS(=O)(=O)Cc1nc(CNc2c(F)cc(F)cc2F)cs1	%	22.22
CCc1nc(CSCc2csc(CS(C)(=O)=O)n2)cs1	%	115
Cc1cccc(C(C(=O)NCc2csc(-c3ncccn3)n2)N(C)C)c1 (configuration not stated)	%	2.9
CS(=O)(=O)Cc1nc(CN2CCc3ccccc3CC2)cs1	%	14.86
O=C1N(c2ccccc2)C[C@H]2CN(C3CCC3)CCN12	%	-7.27
Cc1cc(CSCc2cc(C)on2)on1	%	-0.9382
Cc1noc(C)c1CSCc1nc(N)c2ccccc2n1	%	-9.423

The reported measurements were obtained from ChEMBL document CHEMBL3988442.
